- measuredTarget: T1, anti-mFc (AMC) Octet biosensor, blank
- T1 construct: Sensor without captured protein, used as blank; also called Blank AMC Sensor
- measurementDescription: BLI Octet, blank AMC sensor, 100 nM mAb, 25C
reportedEndpoint: mAb Binding Response (nm)
Quick reminder: number only, in nm, skip the unit.

H4H15346P (antibody, human IgG4, V domains shown, H4H prefix: human IgG4 Fc) VH: EVQLVESGGGLVQPGGSLRLSCAASGFTFSNYAMSWVRQAPGKGLEWVSTISDTGGSTYYADSVKGRFALSRDNSRNTLYLQMNSLRAEDTAVYYCAKEGPPDYWGQGTLVTVSS VL: EIVLTQSPATLSLSPGERATLSCRTSQSVSIYLAWYQQKPGQAPRLLIYDASKRATGIPARFSGRGSGTDFTLTISSLEPEDFAVYYCQQRSNWPLTFGQGTRLEIK | -0.01
H4H15318P (antibody, human IgG4, V domains shown, H4H prefix: human IgG4 Fc) VH: QVQLVESGGGVVQPGRSLRLSCTASGFTFGNFGIHWVRQAPGKGLEWVAVISYDGTDKFYADPVKGRFIISRDNSMNILYLQMNSLRAEDTAVYYCAKDGEMELRGYYYYYGMDVWGQGTTVTVSS VL: DIQMTQSPSSVSASVGDRVTITCRASQGINTWLAWYQQKPGTAPKLLIFAASSLESGVPSRFSGSGFGTDFTLTISSLQSEDLATYFCQQVHSPPYTFGQGTKLEIK | 0.01

Could you now look at the following binder, please?
What does the data say about its mAb Binding Response (nm)? Entry: H4H15334P (antibody, human IgG4, V domains shown, H4H prefix: human IgG4 Fc) VH: QVQLQESGPGLVKPSQTLSLTCTVSGGSINSGGYYWNWIRQHPGKGLEWIGYIYYSGSTYFNPSLKSRVTISIDTSKNQFSLKLSSVTAADTAVYYCAREGIYAFDYWGQGTLVTVSS VL: DIQMTQSPSSLSASVGDRVTITCRASQGIRNDLGWYQQKPGKAPKRLIYSASSLQSGVPSRFGGSGSGTEFTLTISSLQPEDFATYYCLQHNSYPWTFGQGTKVEIK
0.03
